Reported MIC values for a set of compounds
Test system: Clostridioides difficile
Protocol text: Antibacterial activity against Clostridium difficile 8260 incubated for 46 hrs in anaerobic condition by CLSI-based broth microdilution assay
Format: functional
// return numeric value only (unit: µg/mL, not printed)

Guide cases for MIC, answers given:
[
  {
    "Smi": "CCc1c(Cl)c(O)c(Cl)c(O)c1C(=O)O[C@@H]1[C@@H](O)[C@@H](OC)[C@@H](OC/C2=C\\C=C\\C[C@H](O)/C(C)=C/[C@H](CC)[C@@H](O[C@@H]3OC(C)(C)[C@@H](OC(=O)C(C)C)[C@H](O)[C@@H]3O)/C(C)=C/C(C)=C/C[C@@H]([C@@H](C)O)OC2=O)O[C@H]1C",
    "Unit text": "µg/mL",
    "Value measured": 0.06
  },
  {
    "Smi": "CCOC(=O)COc1c(Cl)c(O)c(C(=O)O[C@@H]2[C@@H](O)[C@@H](OC)[C@@H](OC/C3=C\\C=C\\C[C@H](O)/C(C)=C/[C@H](CC)[C@@H](O[C@@H]4OC(C)(C)[C@@H](OC(=O)C(C)C)[C@H](O)[C@@H]4O)/C(C)=C/C(C)=C/C[C@@H]([C@@H](C)O)OC3=O)O[C@H]2C)c(CC)c1Cl",
    "Unit text": "µg/mL",
    "Value measured": 16
  }
]

Lab note: measured MIC of `CCc1c(Cl)c(OCCCn2cc(CCN3CCC(N)CC3)nn2)c(Cl)c(O)c1C(=O)O[C@@H]1[C@@H](O)[C@@H](OC)[C@@H](OC/C2=C\C=C\C[C@H](O)/C(C)=C/[C@H](CC)[C@@H](O[C@@H]3OC(C)(C)[C@@H](OC(=O)C(C)C)[C@H](O)[C@@H]3O)/C(C)=C/C(C)=C/C[C@@H]([C@@H](C)O)OC2=O)O[C@H]1C` was 4
